src = PubChem BioAssay

Collected viability values appear next to each entry.
assay method text: growth inhibitors of H69AR lung tumor, primary screen, human, duplicate replicates (AID 580);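 further: 100% = mean luminescence of untreated wells and 0% = no signal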
condition notes: H69AR lung tumor cells viability, ATP luminescence, 72 h; at 10 µM; stronger effect = lower value
Activity calls are given as the source filed them.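 How the source made its calls: active means viability at or under a set limit in both replicates, limit being median viability minus 3 SD (cut at about 48% in these data, passing the limit was not always enough); inconclusive means at or under the limit in just one replicate; inactive means at or above the limit in both replicates.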

Any idea what its viability is? The molecule is CC(=O)Nc1ccc(S(=O)(=O)N2CCC(NC(C)=O)(c3cccc(F)c3)CC2)cc1
104% (inactive)

What do you have for CCOC(=O)N1CCN(c2c(N3CCN(c4ccccc4OC)CC3)c(=O)c2=O)CC1 ?
84.2% (inactive)

What do you have for C=CCOC(=O)C1=C(C)OC(N)=C(C#N)C1c1ccc2c(c1)OCO2 (stereo not given) ?
94.5% (inactive)

----------
assay method text: reversal of MRP1-mediated doxorubicin resistance, pilot screen, H69AR cells, doxorubicin co-treatment (AID 601)
condition notes: H69AR cells, CellTiter-Glo, 72 h; compound alone cytotoxicity; at 10 µM
Collected viability values appear next to each entry.
Answer in %, number only, no unit symbol.

> print(dat)
                               entry.smiles  observed
1  CC(=O)N1CCC2(CC1)CC(=O)c1cc(OCC(=O)NCc3ccc(C)cc3)ccc1O2        90
2           CCOc1ccc(Cl)cc1S(=O)(=O)N1CCCC1      88.8
3           CCSc1nncn1/N=C/c1ccc(OC)c(OC)c1      91.6
4  COCCNC(=O)CSc1nc(-c2ccc(OC)c(OC)c2)cc(C(F)(F)F)n1        89
5   O=c1c[n+]([O-])c2ccccc2n1OCc1c(F)cccc1F      88.2

Lab note: next molecule to report on.
Any idea what its viability is? The molecule is CCc1nnc(NC(=O)c2cc3ccccc3oc2=O)s1
89.7

----------
assay method text: growth inhibitors of H69AR lung tumor, primary screen, human, duplicate replicates (AID 580);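 further: 100% = mean luminescence of untreated wells and 0% = no signal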
condition notes: H69AR lung tumor cells viability, ATP luminescence, 72 h; at 10 µM; stronger effect = lower value
Assign labels as follows, please: rule met for viability below 90%; rule not met for viability equal to or exceeding 90%.

Would you please look over these solved cases?
> print(dat)
                                   compound    class.name
1      CC(=O)O[C@H]1CSC[C@H]1NC(=O)c1ccccc1  rule not met
2       CCOC(=O)c1ccccc1NC(=O)c1cc2sccc2n1C      rule met
3  Cn1c(=O)c2c(nc(SCCCO)n2Cc2ccccc2Cl)n(C)c1=O      rule met
4                CCCCNc1cc(C)oc(=O)c1C(C)=O  rule not met

Pending compound:
Field: below-cutoff. Rule: recorded viability strictly less than 90%. Subject: CCOc1ccc(N2C(N)=NC(N)=NC2(C)C)cc1
rule met

----------
Collected inhibition values appear next to each entry.
assay method text: inhibitors of the yeast RAM network, pilot screen, dse1pr::URA3 reporter, 5-FOA selection (AID 869);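 further: 0% = DMSO wells with no growth and 100% = 10 µM 1-NA-PP1 with full growth; RAM network block rescues cells from 5-FOA so hits raise OD615 growth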
condition notes: S. cerevisiae dse1pr::URA3 5-FOA growth, OD615, 2 d; at 10 µM; stronger effect = higher value; strain carries analog-sensitive mutant Cbk1 kinase
Answer in %, number only, no unit symbol.

Study these solved cases before continuing.
> print(dat)
                                   molecule  observed
1  O=S(=O)(Nc1nnc(-c2ccccc2)s1)c1ccc(Cl)cc1      3.29
2  CCOC(=O)c1c(NC(=O)C2CCCN2S(=O)(=O)c2cccc3nsnc23)sc(C)c1C (configuration not stated)     0.565
3  CC(=O)C1C(c2ccc(O)cc2)NC(=O)NC1(O)C(F)(F)F (configuration not stated)      2.78

Any idea what its inhibition is? The molecule is O=C(Nc1ccc(N2CCCC2)c(Cl)c1)c1ccc(Br)o1
0.885

What do you have for O=C(NC1CCCc2ccccc21)C1CCN(C(=O)c2sccc2-n2cccc2)CC1 (configuration not stated) ?
-0.305
